Target: Rap guanine nucleotide exchange factor 3 (Homo sapiens)
Assay: Counterscreen qHTS for antagonist of cAMP-regulated guanine nucleotide exchange factor 3 (EPAC1) (AID 1645888);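 note: fluorescence loss as bound BODIPY-GDP is released from Rap1B; % of control where 0% means no effect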
Conditions: Rap1B-BODIPY-GDP nucleotide exchange, fluorescence; series mostly up to 154 µM
Source text: Assay Provider (PI): Xiaodong Cheng Ph.D. The University of Texas Medical Branch, […], TX MLPCN Grant: NS066510 In multi-cellular eukaryotic organisms, the effects of cAMP are transduced by two ubiquitously-expressed intracellular cAMP receptors, the classic protein kinase A/cAMP-dependent protein kinase (PKA/cAPK) and the more recently discovered exchange protein directly activated by cAMP/cAMP-regulated guanine nucleotide exchange factor (EPAC/cAMP-GEF). […]
Records with an inconclusive call do not appear. Active and inactive are the calls of the source. Calls come from the whole dose curve; as a rule, active = well fitted inhibition curve with a large enough effect; inconclusive = small, poorly fitted or top-dose-only effect; inactive = no such curve, though single readings can be large or run the other way.
endpoint-name: activity change, negative = inhibition

Reference set, count: 4
O=C1NC(=O)N(Cc2ccccc2)C(=O)/C1=C/C=C/c1ccco1 | -0.901% [at 30.8 µM] (inactive)
CCCNC(=O)N1[C@H]2CC[C@@H]1C(C(=O)OC)=C(c1ccc(F)cc1OCc1ccccc1)C2 | inactive
O=C1NC(=O)N(Cc2ccc(F)cc2)C(=O)/C1=C\C=C\c1ccco1 | 6.52% [at 30.8 µM] (inactive)
CC(Cc1ccc(O)cc1)NCC(O)c1ccc(O)c(O)c1 (stereo not given) | 6.78% [at 30.8 µM] (inactive)

Return reported activity change, negative = inhibition; argument: CCCCn1c(NS(=O)(=O)c2ccc(C)cc2)c(C(=O)OCC)c2nc3ccccc3nc21
inactive

Can you look up the measured activity change, negative = inhibition of Cc1cccc(N2C(=O)NC(=O)/C(=C\c3cc(C)n(-c4sc5c(c4C#N)CCCC5)c3C)C2=O)c1C for me?
inactive

Entry under review: CCOC(=O)[C@]12Cc3cc(OC)ccc3[C@H]1N(Cc1ccccc1)C(=O)c1ccccc12 . Reported activity change, negative = inhibition?
inactive

Fill in: activity change, negative = inhibition of Nc1c(C(=O)Nc2ccc(Br)cc2F)sc2nc3c(cc12)N1CCC3CC1 is ___
inactive

Param item = Cc1ccc(OCCn2cccc2/C=C2/C(=O)NC(=O)N(Cc3ccco3)C2=O)cc1 ; retrieve measured activity change, negative = inhibition.
inactive

Returns the measured activity change, negative = inhibition for the input compound. Input: O=C1NC(=S)NC(=O)C1=Cc1cccc2cc3ccccc3cc12
inactive

---

biological target: Tumor susceptibility gene 101 protein (Homo sapiens) (UniProt Q99816); assay: qHTS Assay for Iinhibitors of HIV-1 Budding by Blocking the Interaction of PTAP/TSG101: Hit Validation (AID 651600); conditions: PTAP peptide/TSG101 UEV interaction, biochemical assay; series mostly up to 57.5 µM; note: nearly all actives have a fitted effect of over 70% in size
Sequence (Q99816 whole entry, looked up): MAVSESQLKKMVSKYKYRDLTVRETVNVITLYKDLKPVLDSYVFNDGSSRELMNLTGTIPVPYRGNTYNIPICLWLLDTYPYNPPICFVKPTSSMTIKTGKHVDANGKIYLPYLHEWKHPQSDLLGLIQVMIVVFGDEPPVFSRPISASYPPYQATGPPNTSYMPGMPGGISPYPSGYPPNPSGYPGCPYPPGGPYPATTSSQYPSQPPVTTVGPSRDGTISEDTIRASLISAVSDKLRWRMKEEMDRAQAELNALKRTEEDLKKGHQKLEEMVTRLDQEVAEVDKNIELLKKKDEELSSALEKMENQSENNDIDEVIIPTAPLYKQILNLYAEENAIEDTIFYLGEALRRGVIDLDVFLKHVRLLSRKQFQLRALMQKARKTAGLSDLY
Records with an inconclusive call do not appear. Calls of active or inactive are those of the source. The call rests on the fitted dose curve; in most records, active means well fitted inhibition curve with a large enough effect; inconclusive means small, poorly fitted or top-dose-only effect; inactive means no such curve, though single readings can be large or run the other way.
Respond with a class label; see 1.0 (active), 0.0 (inactive)

Below are worked cases with known answers.
CCN(CC)C(=O)Cn1cc(C=C2C(=O)N(C)C(=O)N(C)C2=O)c2ccccc21 | 0.0
O=[N+]([O-])c1ccc(NCc2ccccc2)c2nonc12 | 1.0

For CCn1c(O)c(C=Nc2ccc(N3CCOCC3)cc2)c(=O)n(CC)c1=S , which call appears in the assay record?
1.0

Look up the recorded call for Nc1ccc2ccc3cccc[n+]3c2c1 in this test.
1.0

Could you please tell me the result logged for O=c1cc(C(F)(F)F)c2cc3c4c(c2o1)CCCN4CCC3 in this assay?
1.0

Every entry's value here was drawn from PubChem BioAssay (NCATS).
